Reference for the values: patent US11040981B2

- TEST_TARGET: FLT3 (Homo sapiens)
- Sequence (P36888 27-993): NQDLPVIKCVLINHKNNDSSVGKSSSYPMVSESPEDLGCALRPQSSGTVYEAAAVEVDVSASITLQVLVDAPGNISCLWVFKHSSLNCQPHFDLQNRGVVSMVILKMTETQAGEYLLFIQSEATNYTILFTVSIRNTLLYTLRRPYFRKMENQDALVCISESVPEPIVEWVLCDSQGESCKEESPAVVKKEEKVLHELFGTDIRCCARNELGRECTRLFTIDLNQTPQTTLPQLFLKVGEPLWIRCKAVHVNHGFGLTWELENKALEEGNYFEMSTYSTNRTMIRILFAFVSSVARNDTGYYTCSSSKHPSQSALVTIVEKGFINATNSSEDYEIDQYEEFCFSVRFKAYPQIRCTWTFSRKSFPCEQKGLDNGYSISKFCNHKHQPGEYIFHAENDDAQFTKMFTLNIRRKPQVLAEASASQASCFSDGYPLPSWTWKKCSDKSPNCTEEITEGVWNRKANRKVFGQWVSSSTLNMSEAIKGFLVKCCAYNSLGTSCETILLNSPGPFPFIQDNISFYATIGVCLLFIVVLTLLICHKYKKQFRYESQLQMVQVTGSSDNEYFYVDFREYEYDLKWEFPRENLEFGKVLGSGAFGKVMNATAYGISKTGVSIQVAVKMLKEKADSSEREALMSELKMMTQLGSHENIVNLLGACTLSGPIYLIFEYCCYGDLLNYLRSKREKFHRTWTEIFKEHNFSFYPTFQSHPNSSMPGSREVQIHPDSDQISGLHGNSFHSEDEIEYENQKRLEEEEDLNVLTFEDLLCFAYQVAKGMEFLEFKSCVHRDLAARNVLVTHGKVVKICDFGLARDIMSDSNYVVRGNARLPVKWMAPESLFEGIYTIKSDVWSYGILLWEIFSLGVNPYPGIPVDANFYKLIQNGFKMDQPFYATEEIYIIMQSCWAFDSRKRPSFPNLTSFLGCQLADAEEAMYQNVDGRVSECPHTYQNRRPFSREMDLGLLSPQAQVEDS
RECORDED_ENDPOINT: IC50

In: Find the recorded IC50 belonging to COC[C@H](C)Nc1ncc2c(-c3ccnc(N4CCN(C(C)=O)CC4)c3)cc([C@H]3CC[C@H](O)CC3)n2n1 and report it.
Out: 100 to 1000 nM

In: Requested field: IC50. Item: COC[C@H](C)Nc1ncc2c(-c3ccnc(N4CCN(S(=O)(=O)C(F)(F)F)CC4)c3)cc([C@H]3CC[C@H](O)CC3)n2n1
Out: 1000 to 10000 nM

In: What value of IC50 has been reported for the following compound? COCCn1cc(-c2cc([C@H]3CC[C@H](O)CC3)n3nc(N[C@@H](C)CC(F)(F)F)ncc23)cn1
Out: ≤ 100 nM

====

- TEST_TARGET: AXL (Homo sapiens, UniProt P30530)
- Sequence (P30530 26-894): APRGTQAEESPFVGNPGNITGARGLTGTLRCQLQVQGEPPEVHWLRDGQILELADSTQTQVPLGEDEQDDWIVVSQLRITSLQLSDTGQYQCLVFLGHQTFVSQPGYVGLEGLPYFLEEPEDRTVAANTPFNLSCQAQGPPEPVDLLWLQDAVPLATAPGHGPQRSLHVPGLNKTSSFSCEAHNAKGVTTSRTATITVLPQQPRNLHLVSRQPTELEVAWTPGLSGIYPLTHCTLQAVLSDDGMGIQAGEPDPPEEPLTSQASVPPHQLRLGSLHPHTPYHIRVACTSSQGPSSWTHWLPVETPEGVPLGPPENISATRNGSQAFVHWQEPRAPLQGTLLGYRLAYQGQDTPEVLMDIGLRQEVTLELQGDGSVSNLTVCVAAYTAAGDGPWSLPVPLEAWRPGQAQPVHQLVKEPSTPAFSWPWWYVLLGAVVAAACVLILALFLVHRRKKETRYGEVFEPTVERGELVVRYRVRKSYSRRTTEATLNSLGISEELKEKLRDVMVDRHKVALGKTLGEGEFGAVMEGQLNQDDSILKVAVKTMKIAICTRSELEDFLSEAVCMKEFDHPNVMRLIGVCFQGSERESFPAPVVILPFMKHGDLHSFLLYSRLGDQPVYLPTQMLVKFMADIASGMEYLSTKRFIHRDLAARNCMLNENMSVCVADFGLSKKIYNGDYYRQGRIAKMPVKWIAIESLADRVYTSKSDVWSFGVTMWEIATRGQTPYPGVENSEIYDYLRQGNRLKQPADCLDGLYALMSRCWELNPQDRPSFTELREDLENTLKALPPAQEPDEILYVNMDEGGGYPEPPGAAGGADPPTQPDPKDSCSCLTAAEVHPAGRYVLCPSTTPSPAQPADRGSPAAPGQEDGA
- ASSAY_SUMMARY: TR-FRET kinase activity assay, AXL
- Type: biochemical
- CONDITIONS_USED: ATP at Km, 60 minutes
RECORDED_ENDPOINT: IC50

In: I would be grateful if you could share the reported IC50 for COC[C@H](C)Nc1ncc2c(-c3cc(C)ccn3)cc([C@H]3CC[C@H](O)CC3)n2n1 [Compound 257] .
Out: 1 to 10 µM

In: For the compound COC[C@H](C)Nc1ncc2c(-c3ccnc(N4CCC(C)(O)CC4)c3)cc([C@H]3CC[C@H](O)CC3)n2n1 [Compound 605] , what IC50 is on record?
Out: ≤ 0.1 µM

In: # IC50 lookup, item CC(Nc1ncc2c(-c3cnn(C4COC4)c3)cc(C3CCC(O)CC3)n2n1)c1ccccn1 (stereo not shown) [Compound 544]
Out: 1 to 10 µM

In: Fill in: IC50 of COCC(C)Nc1ncc2c(C3CCN(C(C)=O)C3)cc(C3CCC(O)CC3)n2n1 (mixture of isomers) [Compound 383] is ___
Out: 0.1 to 1 µM

====

- TEST_TARGET: FLT3 (Homo sapiens, UniProt P36888)
- Sequence (P36888 27-993): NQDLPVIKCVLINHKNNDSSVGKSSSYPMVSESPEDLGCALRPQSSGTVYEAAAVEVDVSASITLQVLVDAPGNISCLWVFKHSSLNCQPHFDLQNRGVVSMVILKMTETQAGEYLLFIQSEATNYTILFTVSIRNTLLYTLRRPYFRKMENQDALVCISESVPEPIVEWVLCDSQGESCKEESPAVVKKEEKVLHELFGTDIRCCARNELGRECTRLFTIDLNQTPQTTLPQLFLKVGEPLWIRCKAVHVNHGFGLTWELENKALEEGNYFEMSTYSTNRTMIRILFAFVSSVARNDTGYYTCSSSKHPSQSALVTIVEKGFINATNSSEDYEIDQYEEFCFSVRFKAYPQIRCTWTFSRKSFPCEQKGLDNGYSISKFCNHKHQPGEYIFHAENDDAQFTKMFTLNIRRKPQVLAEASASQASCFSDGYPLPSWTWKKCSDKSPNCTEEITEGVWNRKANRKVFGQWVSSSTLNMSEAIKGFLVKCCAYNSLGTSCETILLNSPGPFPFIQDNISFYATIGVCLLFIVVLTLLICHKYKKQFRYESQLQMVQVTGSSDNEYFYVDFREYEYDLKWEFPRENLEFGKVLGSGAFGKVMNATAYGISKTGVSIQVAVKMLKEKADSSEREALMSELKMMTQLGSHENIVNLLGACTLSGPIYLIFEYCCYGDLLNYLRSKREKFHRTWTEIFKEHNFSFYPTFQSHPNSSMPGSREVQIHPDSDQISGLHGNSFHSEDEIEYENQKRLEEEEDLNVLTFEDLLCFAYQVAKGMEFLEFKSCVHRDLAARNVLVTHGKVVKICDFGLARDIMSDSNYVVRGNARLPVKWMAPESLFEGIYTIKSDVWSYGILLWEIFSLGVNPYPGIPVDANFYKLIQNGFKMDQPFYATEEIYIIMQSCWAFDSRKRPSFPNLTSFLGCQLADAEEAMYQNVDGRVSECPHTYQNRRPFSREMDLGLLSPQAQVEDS
pIC50: −log10 of the molar value.
RECORDED_ENDPOINT: pIC50

In: Fill in: pIC50 of COC[C@H](C)Nc1ncc2c(-c3cccc(C4CCc5nc(C)[nH]c5C4)c3)cc([C@H]3CC[C@H](O)CC3)n2n1 (some centres unmarked) is ___
Out: 6.00 to 7.00

In: Given the compound C[C@@H](CC(F)(F)F)Nc1ncc2c(-c3cnn([C@@H]4CCOC4)c3)cc([C@H]3CC[C@H](O)CC3)n2n1 , what is its reported pIC50?
Out: ≥ 7.00

In: Recorded pIC50 of COC[C@H](C)Nc1ncc2c(-c3cnn(C(C)(C)c4nnc(C)s4)c3)cc([C@H]3CC[C@H](O)CC3)n2n1 , please.
Out: 6.00 to 7.00

In: Returns the measured pIC50 for the input compound. Input: C[C@@H](CC(F)(F)F)Nc1ncc2c(-c3ccnc([S@](C)(=N)=O)c3)cc([C@H]3CC[C@H](O)CC3)n2n1
Out: ≥ 7.00

In: Given C[C@@H](CC(F)(F)F)Nc1ncc2c(C3=C[C@@H]4CC[C@H](C3)N4)cc([C@H]3CC[C@H](O)CC3)n2n1 , state its recorded pIC50.
Out: 6.00 to 7.00

In: Would you mind telling me what pIC50 value was observed for COC[C@H](C)Nc1ncc2c(C3=CC4CCC(C3)N4)cc([C@H]3CC[C@H](O)CC3)n2n1 (some centres unmarked) ?
Out: 5.00 to 6.00

In: Endpoint output: pIC50 of COC[C@H](C)Nc1ncc2c(-c3cnn(Cc4cn[nH]c4)c3)cc([C@H]3CC[C@H](O)CC3)n2n1 . Value?
Out: 6.00 to 7.00

In: Recorded pIC50 of COC[C@H](C)Nc1ncc2c(-c3ccnc(N4CCNCC4)c3)cc([C@H]3CC[C@H](O)CC3)n2n1 , please.
Out: 6.00 to 7.00

====

- TEST_TARGET: FLT3 (Homo sapiens, UniProt P36888)
- Sequence (P36888 27-993): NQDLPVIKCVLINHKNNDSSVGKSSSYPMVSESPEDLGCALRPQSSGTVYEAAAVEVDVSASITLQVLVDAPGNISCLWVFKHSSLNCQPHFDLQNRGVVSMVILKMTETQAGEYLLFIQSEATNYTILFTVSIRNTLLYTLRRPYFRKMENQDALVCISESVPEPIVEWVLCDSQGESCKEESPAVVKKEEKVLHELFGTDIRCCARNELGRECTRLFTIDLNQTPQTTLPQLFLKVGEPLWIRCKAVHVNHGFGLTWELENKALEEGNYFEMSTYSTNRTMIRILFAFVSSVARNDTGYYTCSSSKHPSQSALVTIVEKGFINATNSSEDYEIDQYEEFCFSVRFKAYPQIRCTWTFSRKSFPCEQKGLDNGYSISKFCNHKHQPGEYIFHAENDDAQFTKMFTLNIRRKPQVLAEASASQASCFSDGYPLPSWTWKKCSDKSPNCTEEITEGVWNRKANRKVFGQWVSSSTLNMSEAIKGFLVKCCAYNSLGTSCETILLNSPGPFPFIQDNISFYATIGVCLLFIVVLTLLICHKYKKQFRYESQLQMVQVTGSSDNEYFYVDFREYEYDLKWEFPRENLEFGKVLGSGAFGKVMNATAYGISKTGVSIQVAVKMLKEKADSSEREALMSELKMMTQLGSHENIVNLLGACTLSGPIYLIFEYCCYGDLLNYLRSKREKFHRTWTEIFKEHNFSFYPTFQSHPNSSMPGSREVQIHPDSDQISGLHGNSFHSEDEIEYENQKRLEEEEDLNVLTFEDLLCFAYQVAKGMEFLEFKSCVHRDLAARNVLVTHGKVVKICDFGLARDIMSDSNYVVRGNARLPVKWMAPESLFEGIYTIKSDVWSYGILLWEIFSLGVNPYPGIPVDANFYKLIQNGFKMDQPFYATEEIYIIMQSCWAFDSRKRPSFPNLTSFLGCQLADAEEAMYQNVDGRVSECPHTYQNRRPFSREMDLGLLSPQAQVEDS
pIC50: −log10 of the molar value.
RECORDED_ENDPOINT: pIC50

In: Please provide the recorded pIC50 for CCCCC[C@H](C)Nc1ncc2c(N3CCC(N(C)C)CC3)cc(C3CCC(O)CC3)n2n1.Cl (some centres unmarked) [Compound 115, hydrochloride] , tested on FLT3 (Homo sapiens, UniProt P36888).
Out: 5.00 to 6.00

In: Can you look up pIC50 on FLT3 (Homo sapiens, UniProt P36888) for COC[C@H](C)Nc1ncc2c(C3=CCNCC3)cc([C@H]3CC[C@H](O)CC3)n2n1 ?
Out: 5.00 to 6.00

In: Could you share what pIC50 was measured for COCC(C)Nc1ncc2c(-c3ccc4ncoc4c3)cc(C3CCC(O)CC3)n2n1 (centres unmarked) , tested on FLT3 (Homo sapiens, UniProt P36888)?
Out: 6.00 to 7.00

In: Find pIC50 (FLT3 (Homo sapiens, UniProt P36888)) for the entry COC[C@H](C)Nc1ncc2c(-c3cnn(C4CCS(=O)(=O)CC4)c3)cc([C@H]3CC[C@H](O)CC3)n2n1
Out: 6.00 to 7.00

In: FLT3 (Homo sapiens, UniProt P36888) / pIC50 / COC[C@H](C)Nc1ncc2c(-c3cncc([S@@](C)(=N)=O)c3)cc([C@H]3CC[C@H](O)CC3)n2n1 : value?
Out: < 5.00

In: // lookup pIC50 | system=FLT3 (Homo sapiens, UniProt P36888) | key= C[C@H](CC(F)(F)F)Nc1ncc2c(C3=C[C@H]4CC[C@@H](C3)N4C(=O)OC(C)(C)C)cc([C@H]3CC[C@H](O)CC3)n2n1
Out: ≥ 7.00

In: Query the reported pIC50 for FLT3 (Homo sapiens, UniProt P36888); item: CC(CCF)Nc1ncc2c(-c3ccc(CN4CCOCC4)cc3)cc(C3CCC(O)CC3)n2n1 (centres unmarked)
Out: ≥ 7.00

In: Form entry - test system: FLT3 (Homo sapiens, UniProt P36888); read-out: pIC50; molecule: COC[C@H](C)Nc1ncc2c(C3=CCOCC3)cc([C@H]3CC[C@H](O)CC3)n2n1
Out: 6.00 to 7.00

In: Look up pIC50 with FLT3 (Homo sapiens, UniProt P36888) for this molecule: COC[C@H](C)Nc1ncc2c([C@H]3CC[C@H](C(=O)N4CCN(C)CC4)CC3)cc([C@H]3CC[C@H](O)CC3)n2n1
Out: 5.00 to 6.00

In: Form field: pIC50 recorded for CCCCC[C@H](C)Nc1ncc2c(C(=O)Nc3ccc(F)cc3)cc(C3CCC(O)CC3)n2n1 (some centres unmarked) with FLT3 (Homo sapiens, UniProt P36888) (enter value)
Out: 5.00 to 6.00

In: Reported pIC50 for FLT3 (Homo sapiens, UniProt P36888), given COC[C@H](C)Nc1ncc2c(-c3ccc(CN4CCOCC4)cc3)cc([C@H]3CC[C@H](O)CC3)n2n1 ?
Out: 6.00 to 7.00

In: Param readout= pIC50; system= FLT3 (Homo sapiens, UniProt P36888); entry= C[C@H](CN(C)C)Nc1ncc2c(-c3cnn(C4COC4)c3)cc([C@H]3CC[C@H](O)CC3)n2n1 ; returns value.
Out: 5.00 to 6.00

In: Query for FLT3 (Homo sapiens, UniProt P36888): what pIC50 does the record show for COC[C@H](C)Nc1ncc2c(-c3ccc(C(=O)N4CCCC4)cc3)cc([C@H]3CC[C@H](O)CC3)n2n1 ?
Out: 6.00 to 7.00

In: Provide the documented pIC50 with FLT3 (Homo sapiens, UniProt P36888) as the system for C[C@@H](CC(F)(F)F)Nc1ncc2c(-c3cnn(CCS(C)(=O)=O)c3)cc([C@H]3CC[C@H](O)CC3)n2n1
Out: ≥ 7.00
